Target: Opioid receptors; mu/kappa/delta (Homo sapiens) (UniProt P41145+P41143+P35372)
Sequence (P35372 whole entry, looked up): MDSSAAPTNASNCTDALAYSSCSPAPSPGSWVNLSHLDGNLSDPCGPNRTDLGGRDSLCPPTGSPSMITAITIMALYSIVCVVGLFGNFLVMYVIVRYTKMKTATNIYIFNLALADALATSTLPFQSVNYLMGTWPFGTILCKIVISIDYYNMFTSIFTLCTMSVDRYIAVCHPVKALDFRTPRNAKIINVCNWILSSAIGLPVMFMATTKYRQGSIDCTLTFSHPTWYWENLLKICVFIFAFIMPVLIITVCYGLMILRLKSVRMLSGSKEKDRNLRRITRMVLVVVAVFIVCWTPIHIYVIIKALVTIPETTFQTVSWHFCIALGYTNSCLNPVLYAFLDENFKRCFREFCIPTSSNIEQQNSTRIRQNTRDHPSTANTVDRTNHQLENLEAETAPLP
Sequence (P41143 whole entry, looked up): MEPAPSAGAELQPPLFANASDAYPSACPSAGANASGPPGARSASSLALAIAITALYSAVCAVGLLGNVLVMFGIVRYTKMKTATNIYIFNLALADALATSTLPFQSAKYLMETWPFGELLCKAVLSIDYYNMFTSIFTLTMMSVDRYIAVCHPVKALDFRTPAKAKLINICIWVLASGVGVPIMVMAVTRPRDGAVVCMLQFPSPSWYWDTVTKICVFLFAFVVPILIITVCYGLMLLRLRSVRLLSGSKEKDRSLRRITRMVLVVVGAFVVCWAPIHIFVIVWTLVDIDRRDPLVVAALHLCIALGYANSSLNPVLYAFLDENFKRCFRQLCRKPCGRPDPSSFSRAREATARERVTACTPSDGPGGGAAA
Sequence (P41145 whole entry, looked up): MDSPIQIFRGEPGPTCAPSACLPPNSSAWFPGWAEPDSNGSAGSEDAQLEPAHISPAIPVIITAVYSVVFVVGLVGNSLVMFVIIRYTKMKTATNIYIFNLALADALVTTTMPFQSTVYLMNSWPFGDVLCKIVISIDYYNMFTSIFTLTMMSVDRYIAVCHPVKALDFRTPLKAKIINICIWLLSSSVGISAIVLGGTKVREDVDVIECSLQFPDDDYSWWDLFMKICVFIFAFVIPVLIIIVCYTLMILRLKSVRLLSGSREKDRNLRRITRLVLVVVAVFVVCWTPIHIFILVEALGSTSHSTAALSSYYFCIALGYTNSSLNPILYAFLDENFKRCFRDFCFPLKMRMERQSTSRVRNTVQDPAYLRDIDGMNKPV
Assay: In vitro agonist activity towards opioid receptor on the electrically stimulated Guinea pig ileal longitudinal muscle (GPI); morphine IC50/ agonist IC50 in the same tissue
Format: functional
Settings: Cavia porcellus; target entry is the homologue from another species

compound	Potency ratio
CC(=O)NCC(=O)NCC(=O)NC1CCC2(O)[C@H]3Cc4ccc(O)c5c4C2(CCN3C)C1O5 (stereo not given in full)	1.9
O=C(CCC(=O)NCC(=O)NCC(=O)NC1CCC2(O)[C@H]3Cc4ccc(O)c5c4C2(CCN3CC2CC2)C1O5)NCC(=O)NCC(=O)NC1CCC2(O)[C@@H]3Cc4ccc(O)c5c4C2(CCN3CC2CC2)C1O5 (single isomer, unassigned; (-))	181
O=C(CCC(=O)NCC(=O)NCC(=O)NC1CCC2(O)[C@H]3Cc4ccc(O)c5c4C2(CCN3CC2CC2)C1O5)NCC(=O)NCC(=O)NC1CCC2(O)[C@H]3Cc4ccc(O)c5c4C2(CCN3CC2CC2)C1O5 (stereo not given in full)	7.8
CN1CCC23c4c5ccc(O)c4OC2C(NC(=O)CNC(=O)CNC(=O)CCC(=O)NCC(=O)NCC(=O)NC2CCC4(O)[C@H]6Cc7ccc(O)c8c7C4(CCN6C)C2O8)CCC3(O)[C@H]1C5 (stereo not given in full)	7.6
CC(=O)NCC(=O)NCC(=O)NC1CCC2(O)[C@H]3Cc4ccc(O)c5c4C2(CCN3CC2CC2)C1O5 (stereo not given in full)	5.4
